Data origin: patent US10967069B2

- assay.notes: Hydrolytic stability tests of tetrazines (UV, decrease of absorption at 525 nm)
- Format: physicochemical
- assay.conditions: PBS buffer, 20° C.
- Source text: This solution was filtered and, the decrease of the absorption band at 525 nm was monitored using UV spectroscopy.
measured.property: half-life at 83 µM

Q) Hello, please tell me recorded half-life at 83 µM for this one: CCCCNC(=O)c1ccc(-c2nnc(-c3ncccn3)nn2)nc1
A) 25.2 min
